# Tested on: NCI-H322M multicellular tumor spheroids, viability (% test/control)
# PROTOCOL DESCRIPTION: Anticancer human tumor NCI-H322M cell line growth inhibition
# CONDITION INFO: curve of first compound; second compound 30 pM
pIC50: −log10 of the molar value.
Could you please report measured pIC50 for the items listed next?

Enquiry: In one line, give reported pIC50 of the entry Cc1sc2c(c1C)C(c1ccc(Cl)cc1)=NC(CC(=O)Nc1ccc(O)cc1)c1nnc(C)n1-2 (stereo unspecified) + COc1cc2c(cc1O)CCNC21CSC2c3c(OC(C)=O)c(C)c4c(c3C(COC1=O)N1C(O)C3Cc5cc(C)c(OC)c(O)c5C(C21)N3C)OCO4 .
Return: < 5.52

Enquiry: In one line, give reported pIC50 of the entry COc1ccc([C@@H](O)c2cc(-c3ncnc4cc(N5CCOCC5)ccc34)c(F)cc2Cl)nn1 + COc1cc2c(cc1O)CCNC21CSC2c3c(OC(C)=O)c(C)c4c(c3C(COC1=O)N1C(O)C3Cc5cc(C)c(OC)c(O)c5C(C21)N3C)OCO4 .
Return: 5.63

Enquiry: In one line, give reported pIC50 of the entry [2H]c1nc(C)nc([2H])c1-c1cc(NC[C@@H](C)c2cccc3c(C(=O)NC)ccnc23)ncn1 + COc1cc2c(cc1O)CCNC21CSC2c3c(OC(C)=O)c(C)c4c(c3C(COC1=O)N1C(O)C3Cc5cc(C)c(OC)c(O)c5C(C21)N3C)OCO4 .
Return: < 5.00

Enquiry: In one line, give reported pIC50 of the entry Cc1cc(C)c(CNC(=O)c2cc(-c3ccc(CN4CCOCC4)cc3)cc3c2cnn3C2CCCC2)c(=O)[nH]1 + COc1cc2c(cc1O)CCNC21CSC2c3c(OC(C)=O)c(C)c4c(c3C(COC1=O)N1C(O)C3Cc5cc(C)c(OC)c(O)c5C(C21)N3C)OCO4 .
Return: < 5.00

Enquiry: In one line, give reported pIC50 of the entry O=C(c1cc(Cc2n[nH]c(=O)c3ccccc23)ccc1F)N1CCN(C(=O)C2CC2)CC1 + COc1cc2c(cc1O)CCNC21CSC2c3c(OC(C)=O)c(C)c4c(c3C(COC1=O)N1C(O)C3Cc5cc(C)c(OC)c(O)c5C(C21)N3C)OCO4 .
Return: < 4.52

Enquiry: In one line, give reported pIC50 of the entry CC1COCCN1c1cc(-c2ccnn2C)c2ccnc(-c3ccn[nH]3)c2n1 (stereo unspecified) + COc1cc2c(cc1O)CCNC21CSC2c3c(OC(C)=O)c(C)c4c(c3C(COC1=O)N1C(O)C3Cc5cc(C)c(OC)c(O)c5C(C21)N3C)OCO4 .
Return: > 7.50
